Biological target: Serine/threonine-protein kinase pim-2 (Homo sapiens, UniProt Q9P1W9)
Sequence (Q9P1W9 whole entry): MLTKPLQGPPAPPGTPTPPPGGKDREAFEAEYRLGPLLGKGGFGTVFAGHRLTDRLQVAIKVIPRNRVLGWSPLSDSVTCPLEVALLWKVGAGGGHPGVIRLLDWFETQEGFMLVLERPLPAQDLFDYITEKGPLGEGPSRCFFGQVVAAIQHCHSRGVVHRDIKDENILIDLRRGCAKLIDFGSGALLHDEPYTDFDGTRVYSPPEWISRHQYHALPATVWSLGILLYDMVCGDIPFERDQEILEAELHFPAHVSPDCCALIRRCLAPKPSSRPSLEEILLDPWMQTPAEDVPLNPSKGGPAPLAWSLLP
Test: Inhibition of His tagged human recombinant PIM2 using PIM tide (ARKRRRHPSGPPTA) as substrate incubated for 1 hr by fluorescence based assay
pIC50: −log10 of the molar value.
outcomeMeasure: pIC50

> print(dat)
                             structuresmiles                               assaytarget  outcomemeasure  censoringoperator  recordedvalue
 1  CN1CCOc2c1cnn1c(-c3ccc4cccc(NC5CCC(C)(C)CC5)c4n3)nnc21  Serine/threonine-protein kinase pim-2 (Homo sapiens, UniProt Q9P1W9)           pIC50                  <           5.00
 2  CC(C)N1CCOc2c1cnn1c(-c3ccc4cccc(NCC5CCNCC5)c4n3)nnc21  Serine/threonine-protein kinase pim-2 (Homo sapiens, UniProt Q9P1W9)           pIC50                  =           5.78
 3  CN1CCOc2c1cnn1c(-c3ccc4cc(F)cc(NCC5(F)CCNCC5)c4n3)nnc21  Serine/threonine-protein kinase pim-2 (Homo sapiens, UniProt Q9P1W9)           pIC50                  =           6.07
 4  CN1CCOc2c1cnn1c(-c3ccc4ccnc(NCC5(F)CCNCC5)c4c3)nnc21  Serine/threonine-protein kinase pim-2 (Homo sapiens, UniProt Q9P1W9)           pIC50                  =           6.91
 5  CN1CCOc2c1cnn1c(-c3ccc4cccc(N5CCNCC5)c4n3)nnc21  Serine/threonine-protein kinase pim-2 (Homo sapiens, UniProt Q9P1W9)           pIC50                  <           5.00
 6  COCCN1CCOc2c1cnn1c(-c3ccc4cccc(NCC5CCNCC5)c4n3)nnc21  Serine/threonine-protein kinase pim-2 (Homo sapiens, UniProt Q9P1W9)           pIC50                  =           5.26
 7  CN1CCOc2c1cnn1c(-c3ccc4cccc(N5CCC(N)CC5)c4n3)nnc21  Serine/threonine-protein kinase pim-2 (Homo sapiens, UniProt Q9P1W9)           pIC50                  =           5.67
 8  CN1CCC(Nc2cccc3ccc(-c4nnc5c6c(cnn45)N(C)CCO6)nc23)CC1  Serine/threonine-protein kinase pim-2 (Homo sapiens, UniProt Q9P1W9)           pIC50                  =           5.54
 9  CN1CCOc2c1cnn1c(-c3ccc4c(F)ccc(NCC5(F)CCNCC5)c4n3)nnc21  Serine/threonine-protein kinase pim-2 (Homo sapiens, UniProt Q9P1W9)           pIC50                  =           5.52
10  c1ccc(OCCN2CCOc3c2cnn2c(-c4ccc5cccc(NCC6CCNCC6)c5n4)nnc32)cc1  Serine/threonine-protein kinase pim-2 (Homo sapiens, UniProt Q9P1W9)           pIC50                  =           5.33

The origin of these recorded values is ChEMBL document CHEMBL4340512.
